# Assay System: α5β3γ2 receptor (Homo sapiens, UniProt P18507+P31644)
# Construct: expressed in transfected cells; host or cells: HEK-293 (stably transfected)
# Sequence (P31644 32-462): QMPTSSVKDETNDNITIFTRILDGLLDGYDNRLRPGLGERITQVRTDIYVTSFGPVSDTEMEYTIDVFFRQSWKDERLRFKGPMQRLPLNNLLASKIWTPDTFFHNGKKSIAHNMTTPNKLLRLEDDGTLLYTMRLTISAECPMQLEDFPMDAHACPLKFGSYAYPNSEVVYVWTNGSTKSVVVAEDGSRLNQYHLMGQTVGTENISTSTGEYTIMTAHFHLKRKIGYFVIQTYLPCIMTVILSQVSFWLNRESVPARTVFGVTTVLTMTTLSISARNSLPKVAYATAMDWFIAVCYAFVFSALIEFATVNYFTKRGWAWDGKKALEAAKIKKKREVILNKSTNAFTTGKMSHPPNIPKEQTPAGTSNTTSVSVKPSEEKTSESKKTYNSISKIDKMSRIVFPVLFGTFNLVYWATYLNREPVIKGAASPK
# Sequence (P28472 26-473 isoform P28472-2 partner limits assumed): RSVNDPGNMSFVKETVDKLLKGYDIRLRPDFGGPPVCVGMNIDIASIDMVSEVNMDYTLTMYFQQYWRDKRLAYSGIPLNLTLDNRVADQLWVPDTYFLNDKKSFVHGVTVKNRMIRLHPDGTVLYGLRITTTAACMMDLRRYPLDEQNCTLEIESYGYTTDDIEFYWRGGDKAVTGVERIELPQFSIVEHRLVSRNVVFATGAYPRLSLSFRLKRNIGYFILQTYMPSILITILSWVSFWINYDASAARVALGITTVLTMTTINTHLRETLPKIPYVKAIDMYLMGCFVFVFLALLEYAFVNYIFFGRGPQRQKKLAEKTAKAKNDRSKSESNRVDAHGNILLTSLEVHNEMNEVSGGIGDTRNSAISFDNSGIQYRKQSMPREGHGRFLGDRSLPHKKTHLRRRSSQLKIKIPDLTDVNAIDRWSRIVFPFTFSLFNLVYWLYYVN
# Sequence (P18507 40-475): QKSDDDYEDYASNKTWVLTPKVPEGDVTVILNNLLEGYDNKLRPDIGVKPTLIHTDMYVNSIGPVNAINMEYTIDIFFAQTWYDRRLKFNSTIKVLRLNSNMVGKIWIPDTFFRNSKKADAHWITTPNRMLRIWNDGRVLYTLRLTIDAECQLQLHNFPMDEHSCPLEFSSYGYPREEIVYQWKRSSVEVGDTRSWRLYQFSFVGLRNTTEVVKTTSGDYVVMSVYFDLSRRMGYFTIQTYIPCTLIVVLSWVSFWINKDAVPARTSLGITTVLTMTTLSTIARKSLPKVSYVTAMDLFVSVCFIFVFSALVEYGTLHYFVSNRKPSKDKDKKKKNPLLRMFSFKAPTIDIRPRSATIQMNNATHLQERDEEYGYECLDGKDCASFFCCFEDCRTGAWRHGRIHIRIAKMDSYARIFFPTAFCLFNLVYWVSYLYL
# Test Summary: Cell level screening: whole cell patch clamp, inverse agonist efficacy
# Format: cell-based
# Condition Description: ratio to α5IA; compound 100 nM
Measured Metric: inverse agonism efficacy of the compound/α5IA inverse agonism efficacy

Cc1cc(-c2nnc3c4ccccc4c(OCc4ccc(C(=O)N[C@H]5CCC[C@@H]5O)cn4)nn23)no1 | 1.832
NNC(=O)c1ccc(COc2nn3c(-c4cc(CO)on4)nnc3c3ccccc23)nc1 | 1.351
Cc1nc(-c2nnc3c4ccccc4c(OCc4ccc(C(=O)N[C@H](C)CO)cn4)nn23)no1 | 1.6973
Cc1cc(-c2nnc3c4ccccc4c(OCc4cc(C(=O)N[C@H](C)CO)on4)nn23)no1 | 1.33
CC(C)NC(=O)c1ccc(COc2nn3c(-c4cc(CO)on4)nnc3c3ccccc23)nc1 | 1.774
CN(C)C(=O)c1ccc(COc2nn3c(-c4cc(CO)on4)nnc3c3ccccc23)nc1 | 1.339

----------
# Assay System: α5β3γ2 receptor (Homo sapiens, UniProt P18507+P31644)
# Construct: expressed in transfected cells; host or cells: HEK-293 (stably transfected)
# Test Summary: Cell level screening: whole cell patch clamp, inverse agonist efficacy
# Type: cell-based
# Condition Description: HEK293, compound 100 nM; GABA 0.05-0.1 μM; HEK293 α5β3γ2; clamped at −60 mV; (Ipost-Ipre)*100/Ipre; read-out: inverse agonism efficacy(%)
Measured Metric: inhibition at 0.1 µM (%)

Cc1cc(-c2nnc3c4ccccc4c(OCc4ccc(C(=O)N[C@H]5CCC[C@@H]5O)cn4)nn23)no1 [Compound 03] | 41.3
NNC(=O)c1ccc(COc2nn3c(-c4cc(CO)on4)nnc3c3ccccc23)nc1 [Compound 51] | 30.5
C[C@H](CO)NC(=O)c1ccc(COc2nn3c(-c4ccsc4)nnc3c3ccccc23)nc1 [Compound 60] | 32.6
Cc1cc(-c2nnc3c4ccccc4c(OCc4ccc(C(=O)N(C)C)cn4)nn23)no1 [Compound 06] | 36
O=C(c1ccc(COc2nn3c(-c4cc(CO)on4)nnc3c3ccccc23)nc1)N1CCOCC1 [Compound 41] | 42.1
O=C(NC1CCC1)c1ccc(COc2nn3c(-c4cc(CO)on4)nnc3c3ccccc23)nc1 [Compound 48] | 43.2
Cc1nc(-c2nnc3c4ccccc4c(OCc4ccc(C(=O)N[C@H](C)CO)cn4)nn23)no1 [Compound 57] | 38.3
C[C@H](CO)NC(=O)c1ccc(COc2nn3c(-c4ccoc4)nnc3c3ccccc23)nc1 [Compound 59] | 39

----------
# Assay System: α5β3γ2 receptor (Homo sapiens, UniProt P18507+P31644)
# Construct: expressed in transfected cells; host or cells: HEK-293 (stably transfected)
# Test Summary: Supplementary data for cell level screening: new electrophysiology method (I. Lecker et al)
# Type: cell-based
# Condition Description: new method, CsCl intracellular solution; GABA 0.1˜0.3 CM; other procedures as previous method
Measured Metric: Inverse agonism efficacy(%)

Known Inverse agonism efficacy(%) results, listed for orientation:
O=C(NCC(F)(F)F)c1ccc(COc2nn3c(-c4cc(CO)on4)nnc3c3ccccc23)nc1 | −32.5
COCCNC(=O)c1ccc(COc2nn3c(-c4cc(C)on4)nnc3c3ccccc23)nc1 | −35.375

a = COCCNC(=O)c1ccc(COc2nn3c(-c4cc(CO)on4)nnc3c3ccccc23)nc1
b = CCNC(=O)c1ccc(COc2nn3c(-c4cc(C)on4)nnc3c3ccccc23)nc1
IN: Form field 'greater Inverse agonism efficacy(%)' accepts a or b ; which applies? Your answer should be the label attached to the chosen record.
OUT: b
